So I've got a bunch of molecules here, and I need their IC50 values.
- target.or.test.system: full length N-terminally FLAG-tagged PARP1 (Homo sapiens, UniProt P09874)
- Sequence (P09874 whole entry): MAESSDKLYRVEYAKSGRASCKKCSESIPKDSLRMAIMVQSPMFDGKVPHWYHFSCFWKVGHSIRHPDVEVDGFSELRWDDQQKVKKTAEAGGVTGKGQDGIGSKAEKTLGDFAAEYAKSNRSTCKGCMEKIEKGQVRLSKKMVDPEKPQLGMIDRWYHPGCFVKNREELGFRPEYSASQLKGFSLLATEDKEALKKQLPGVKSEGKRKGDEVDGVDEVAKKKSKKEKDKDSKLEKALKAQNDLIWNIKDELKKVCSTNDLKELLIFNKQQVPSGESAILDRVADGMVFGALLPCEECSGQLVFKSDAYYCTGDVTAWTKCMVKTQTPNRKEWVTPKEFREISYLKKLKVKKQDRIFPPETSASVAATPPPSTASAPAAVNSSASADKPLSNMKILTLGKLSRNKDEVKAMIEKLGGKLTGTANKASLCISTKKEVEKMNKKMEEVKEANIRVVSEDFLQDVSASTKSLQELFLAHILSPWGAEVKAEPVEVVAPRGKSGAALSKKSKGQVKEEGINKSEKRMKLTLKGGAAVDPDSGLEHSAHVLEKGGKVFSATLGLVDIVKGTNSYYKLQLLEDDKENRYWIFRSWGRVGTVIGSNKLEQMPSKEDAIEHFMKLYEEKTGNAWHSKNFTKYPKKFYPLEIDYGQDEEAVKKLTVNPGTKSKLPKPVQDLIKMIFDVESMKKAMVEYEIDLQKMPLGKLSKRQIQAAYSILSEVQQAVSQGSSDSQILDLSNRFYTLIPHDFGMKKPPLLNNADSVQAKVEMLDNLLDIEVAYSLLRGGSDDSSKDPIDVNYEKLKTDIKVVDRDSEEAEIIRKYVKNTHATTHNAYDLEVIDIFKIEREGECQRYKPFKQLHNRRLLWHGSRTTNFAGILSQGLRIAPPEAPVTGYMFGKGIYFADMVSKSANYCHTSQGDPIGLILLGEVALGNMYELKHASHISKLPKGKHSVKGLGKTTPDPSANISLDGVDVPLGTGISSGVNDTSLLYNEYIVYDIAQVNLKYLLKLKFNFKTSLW
- protocol.description: PARP1 biochemical DELFIA assay (auto-PARylation)
- Set-up: recombinant full length human N-terminally FLAG-tagged PARP1
- protocol.conditions: binned IC50, biochemical auto-PARylation assay

// IC50 value for CCc1ccc(C2CCN(C3CCN(c4cnc(C(=O)NC5CC5)c(F)c4)CC3)C2)[nH]c1=O (single isomer, unassigned) [Compound 408a] : < 10 nM

// IC50 value for CCNC(=O)c1ccc(N2CCC(N3CCC(c4ccc(CC)c(=O)[nH]4)C3)CC2)c(F)n1 (racemic) : < 10 nM

// IC50 value for CNC(=O)c1ccc(N2CCC(N3CCC(c4cc5c(F)ccc(F)c5c(=O)[nH]4)C3)CC2)c(F)n1 (single isomer, unassigned) [Compound 323a] : < 10 nM

// IC50 value for CNC(=O)c1ccc(N2CCC(N3CCC(c4[nH]c(=O)c5ccccc5c4C)C3)CC2)cn1 (racemic) : < 10 nM

// IC50 value for CNC(=O)c1ccc(N2CCC(N3CC4(c5nc6c(c(=O)[nH]5)CCCN6)CC3C4)CC2)cn1 : < 10 nM

// IC50 value for CNC(=O)c1ccc(N2CCC(N3CCC(c4cc5cc(OC)ccc5c(=O)[nH]4)C3)CC2)cn1 (racemic) : < 10 nM

// IC50 value for CNC(=O)c1ccc(N2CCC(N3CCC(c4ccc(CC5CC5)c(=O)[nH]4)C3)CC2)c(F)n1 (single isomer, unassigned) [Compound 313a] : 10 to 100 nM

// IC50 value for CNC(=O)c1ccc(N2CCC(N3CCCC(O)(c4nc5ccccc5c(=O)[nH]4)C3)CC2)cn1 (single isomer, unassigned) [Compound 327a] : 100 to 1000 nM

// IC50 value for CNC(=O)c1ccc(N2CCC(N3CCC(c4cc5c(c(C(F)(F)F)nn5C)c(=O)[nH]4)C3)CC2)cn1 (racemic) : < 10 nM

// IC50 value for CCc1ccc(C2CCN(C3CCN(c4ccc(OC(F)F)nc4)CC3)C2)[nH]c1=O (single isomer, unassigned) [Compound 382a] : 100 to 1000 nM

// IC50 value for CNC(=O)c1ncc(N2CCC(N3CCC(c4cc5cccc(F)c5c(=O)[nH]4)C3)CC2)c(C)n1 (racemic) : < 10 nM

// IC50 value for CNC(=O)c1ccc(N2CCC(N3CC4(c5nc6ccc(F)cc6c(=O)[nH]5)CC3C4)CC2)c(C#N)n1 : < 10 nM

// IC50 value for CCc1ccc(C2CCN(C3CCN(c4ccc(C#N)cn4)CC3)C2)[nH]c1=O (single isomer, unassigned) [Compound 332b] : < 10 nM

// IC50 value for CS(=O)(=O)Nc1ccc(N2CCC(N3CCC(c4nc5ccccc5c(=O)[nH]4)C3)CC2)cn1 (single isomer, unassigned) [Compound 291a] : 10 to 100 nM

// IC50 value for CNC(=O)c1ccc(N2CCC(N3CCC(c4[nH]c(=O)c5ccccc5c4C(F)(F)F)C3)CC2)cn1 (single isomer, unassigned) [Compound 404b] : < 10 nM

// IC50 value for O=C(NCC(F)F)c1ccc(N2CCC(N3CCC(c4cc5ccc(F)cc5c(=O)[nH]4)C3)CC2)c(F)n1 (single isomer, unassigned) [Compound 399a] : < 10 nM

// IC50 value for CNC(=O)c1ccc(N2CCC(N3CCC(c4cc5cccc(OC)c5c(=O)[nH]4)C3)CC2)cn1 (single isomer, unassigned) [Compound 249a] : 1000 to 10000 nM

// IC50 value for CNC(=O)c1ccc(N2CCC(N3CCCC(O)(c4nc5ccccc5c(=O)[nH]4)C3)CC2)cn1 (single isomer, unassigned) [Compound 327b] : 100 to 1000 nM

// IC50 value for O=C(NCC(F)F)c1ccc(N2CCC(N3CCC(c4cc5ccc(F)cc5c(=O)[nH]4)C3)CC2)c(F)n1 (single isomer, unassigned) [Compound 399b] : < 10 nM

// IC50 value for O=c1[nH]c(C2CCN(C3CCN(c4nc5ccccc5[nH]4)CC3)C2)cc2ccccc12 (racemic) : 10 to 100 nM

// IC50 value for CNC(=O)c1ccc(N2CCC(N3CCC(c4cc5c(c(=O)[nH]4)CCCN5)C3)CC2)cn1 (racemic) : < 10 nM

// IC50 value for CCCc1ccc(C2CCN(C3CCN(c4ccc(C(=O)NC)nc4)CC3)C2)[nH]c1=O (single isomer, unassigned) [Compound 261a] : 100 to 1000 nM

// IC50 value for N#Cc1ccc(N2CCC(N3CCC(c4cc5ccc(F)cc5c(=O)[nH]4)C3)CC2)c(Cl)c1 (single isomer, unassigned) [Compound 386a] : < 10 nM

// IC50 value for CNC(=O)c1ccc(N2CCC(N3CCC(c4nc5[nH]nc(C(F)(F)F)c5c(=O)[nH]4)C3)CC2)c(F)n1 (single isomer, unassigned) [Compound 267b] : < 10 nM

// IC50 value for O=c1[nH]c2ccc(N3CCC(N4CCC(c5cc6ccccc6c(=O)[nH]5)C4)CC3)cc2[nH]1 (racemic) : < 10 nM
